Each recorded value in this set is attributed to ChEMBL document CHEMBL3988442.

- TARGET_OR_TEST_SYSTEM: Histidine--tRNA ligase (Leishmania infantum)
- ASSAY_COMMENT: Leishmania infantum Histidine tRNA synthetase (LdHisRS)
- Type: functional
- Design: scale not given: in the data most compounds retested in dose-response had high values
- PROTOCOL_CONDITIONS: 30 µM
About 420 (0.61%) of roughly 69,000 compounds showed an effect of 50% or more. The list comes from a sample in which strong results are over-represented; it also holds close analogues and randomly drawn compounds.
QUANTITY: Percent Effect (%)
Answer format: numeric, % implied, no suffix.

Query: With Histidine--tRNA ligase (Leishmania infantum) as the test system, provide measured Percent Effect for this molecule: Cc1nc(CN(C)C2CCN(Cc3ccc4ccccc4n3)C2)no1 (stereo unspecified)
Response: 53.1

Query: With Histidine--tRNA ligase (Leishmania infantum) as the test system, provide measured Percent Effect for this molecule: Cc1cccc(NC(=O)c2[nH]nc(C(C)C)c2Br)n1
Response: 12.5
